As shown below, each of these molecules has a reported inhibition of growth at 50 µg/mL value.
Test system: HeLa
Protocol Text: Growth inhibition of human HeLa cells at 50 ug/ml after 72 hrs by spectrophotometric analysis
Format: functional
Conditions: read-out: GI
# output: bare number, implied unit %

- Compound: "O=c1c(-c2ccco2)nnc2n1CCN2c1ccc(Cl)cc1"
  inhibition of growth at 50 µg/mL / %: 90
- Compound: "O=c1c(-c2ccco2)nnc2n1CCN2c1ccc(Cl)c(Cl)c1"
  inhibition of growth at 50 µg/mL / %: 95
- Compound: "O=c1c(-c2ccco2)nnc2n1CCN2c1ccccc1"
  inhibition of growth at 50 µg/mL / %: 100
- Compound: "Cc1cccc(N2CCn3c2nnc(-c2ccco2)c3=O)c1C"
  inhibition of growth at 50 µg/mL / %: 90
- Compound: "O=c1c(-c2ccco2)nnc2n1CCN2c1c(Cl)cccc1Cl"
  inhibition of growth at 50 µg/mL / %: 95

Pending molecule:
*Q* Returns the measured inhibition of growth at 50 µg/mL for the input molecule. Input: Cc1ccc(N2CCn3c2nnc(-c2ccco2)c3=O)cc1
*A* 80

====

Test system: T47D
Protocol Text: Growth inhibition of human T47D cells at 50 ug/ml after 48 hrs by spectrophotometric analysis
Format: functional
Conditions: read-out: GI
Entries and their measured inhibition of growth at 50 µg/mL follow.
Report the value in % with no unit label.

- Compound: "O=c1c(-c2ccco2)nnc2n1CCN2c1ccccc1"
  Recorded Result: 85
- Compound: "O=c1c(-c2ccco2)nnc2n1CCN2c1ccc(Cl)cc1"
  Recorded Result: 15
- Compound: "COc1ccc(N2CCn3c2nnc(-c2ccco2)c3=O)cc1"
  Recorded Result: 70
- Compound: "Cc1ccccc1N1CCn2c1nnc(-c1ccco1)c2=O"
  Recorded Result: 50
- Compound: "Cc1ccc(N2CCn3c2nnc(-c2ccco2)c3=O)cc1"
  Recorded Result: 60
- Compound: "Cc1cccc(N2CCn3c2nnc(-c2ccco2)c3=O)c1C"
  Recorded Result: 15
- Compound: "O=c1c(-c2ccco2)nnc2n1CCN2c1c(Cl)cccc1Cl"
  Recorded Result: 20
- Compound: "COc1ccccc1N1CCn2c1nnc(-c1ccco1)c2=O"
  Recorded Result: 30
- Compound: "O=c1c(-c2ccco2)nnc2n1CCN2c1ccc(Cl)c(Cl)c1"
  Recorded Result: 20
- Compound: "O=c1c(-c2ccco2)nnc2n1CCN2c1ccccc1Cl"
  Recorded Result: 15

Now turn to the next molecule.
*Q* # lookup: inhibition of growth at 50 µg/mL of O=c1c(-c2ccco2)nnc2n1CCN2c1cccc(Cl)c1
*A* 50

====

Entries annotated with measured logKw
Protocol Text: Lipophilicity, log Kw of the compound in methanol-water mixture by RP-HPLC
Type: physicochemical
Just the number.

Below: 2 compounds and their reported logKw.
- Compound: "COc1ccc(N2CCn3c2nnc(-c2ccco2)c3=O)cc1"
  logKw: 2.89
- Compound: "O=c1c(-c2ccco2)nnc2n1CCN2c1ccc(Cl)c(Cl)c1"
  logKw: 4.01

Consider now this further compound.
*Q* Which logKw is listed for O=c1c(-c2ccco2)nnc2n1CCN2c1c(Cl)cccc1Cl ?
*A* 2.97
